Target Of Assay: IRAK4 enzyme (Homo sapiens (Human))
Sequence (Q9NWZ3 whole entry): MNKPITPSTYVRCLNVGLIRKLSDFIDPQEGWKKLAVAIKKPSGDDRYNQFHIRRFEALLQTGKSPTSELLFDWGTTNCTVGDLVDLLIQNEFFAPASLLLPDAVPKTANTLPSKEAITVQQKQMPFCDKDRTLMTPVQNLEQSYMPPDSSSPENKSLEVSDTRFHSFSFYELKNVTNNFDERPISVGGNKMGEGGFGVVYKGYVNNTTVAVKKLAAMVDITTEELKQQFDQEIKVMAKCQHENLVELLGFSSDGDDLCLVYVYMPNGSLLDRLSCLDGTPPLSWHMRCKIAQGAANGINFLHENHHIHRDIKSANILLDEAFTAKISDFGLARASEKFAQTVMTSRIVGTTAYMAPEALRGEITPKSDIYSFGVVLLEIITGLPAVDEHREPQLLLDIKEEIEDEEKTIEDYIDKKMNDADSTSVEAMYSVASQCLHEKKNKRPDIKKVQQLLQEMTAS
Protocol: biochemical
Format: biochemical
Condition Parameters: IRAK4 enzyme, TR-FRET (HTRF), 500 μM ATP

# Compound, Target Of Assay, Qualifier Operator, IC50, nM
measured = [
    ("CC(C)(O)[C@H](F)CNC(=O)c1cnc(-c2ccc3cc(C#N)cnn23)cc1N[C@H]1CC[C@H](c2cnco2)CC1", "IRAK4 enzyme (Homo sapiens (Human))", "<", 1),
    ("CC(C)(O)[C@H](F)CNC(=O)c1cnc(-c2ccc3cc(C#N)cnn23)cc1Nc1ccc(Cl)cn1", "IRAK4 enzyme (Homo sapiens (Human))", "=", 1),
    ("CNC(=O)C12CCC(Nc3cc(-c4ccc5cc(C#N)cnn45)ncc3C(=O)NCC#N)(CC1)CC2", "IRAK4 enzyme (Homo sapiens (Human))", "<", 1),
    ("COC(=O)N1CC(CNC(=O)c2cnc(-c3ccc4cc(C#N)cnn34)cc2NC23CCC(O)(CC2)CC3)C1", "IRAK4 enzyme (Homo sapiens (Human))", "=", 2),
    ("N#Cc1cnn2c(-c3cc(N[C@H]4CCC[C@@H](O)C4)c(C(=O)NC4CC5(C4)CC(F)(F)C5)cn3)ccc2c1", "IRAK4 enzyme (Homo sapiens (Human))", "=", 2),
    ("CC(C)Nc1cc(-c2ccc3cc(C#N)cnn23)ncc1C(=O)NCCC(O)C(F)(F)F (stereo not drawn)", "IRAK4 enzyme (Homo sapiens (Human))", "<", 1),
    ("COC(=O)NC12CC(Nc3cc(-c4ccc5cc(C#N)cnn45)ncc3C(=O)NCC#N)(C1)C2", "IRAK4 enzyme (Homo sapiens (Human))", "<", 1),
    ("CC(C)Nc1cc(-c2ccc3cc(C#N)cnn23)ncc1C(=O)NCC(F)(F)CN", "IRAK4 enzyme (Homo sapiens (Human))", "=", 7),
    ("CC(C)(O)[C@H](F)CNC(=O)c1cnc(-c2ccc3cc(C#N)cnn23)cc1N[C@H]1C[C@H](CNc2nnc(C3CC3)o2)C1", "IRAK4 enzyme (Homo sapiens (Human))", "<", 1),
    ("CC(C)(C)OC(=O)N1CC2(CC(Nc3cc(-c4ccc5cc(C#N)cnn45)ncc3C(=O)NC[C@@H](F)C(C)(C)O)C2)C1", "IRAK4 enzyme (Homo sapiens (Human))", "=", 32),
    ("CC1(C)C(=O)Nc2ccc(Nc3cc(-c4ccc5cc(C#N)cnn45)ncc3C(=O)NC[C@@H](F)C(C)(C)O)cc21", "IRAK4 enzyme (Homo sapiens (Human))", "=", 3),
    ("CN(C)C(=O)OC[C@H]1C[C@H](Nc2cc(-c3ccc4cc(C#N)cnn34)ncc2C(=O)NC[C@@H](F)C(C)(C)O)C1", "IRAK4 enzyme (Homo sapiens (Human))", "<", 1),
    ("CC(C)(O)[C@H](F)CNC(=O)c1cnc(-c2ccc3cc(C#N)cnn23)cc1NC1CCC(C)(N2CCOCC2)CC1 (single isomer, unassigned) [Example 690]", "IRAK4 enzyme (Homo sapiens (Human))", "=", 1),
    ("CCC(=O)NC[C@H]1C[C@H](Nc2cc(-c3ccc4cc(C#N)cnn34)ncc2C(=O)NC[C@@H](F)C(C)(C)O)C1", "IRAK4 enzyme (Homo sapiens (Human))", "<", 1),
    ("CN1CC(C(=O)NC[C@H]2C[C@H](Nc3cc(-c4ccc5cc(C#N)cnn45)ncc3C(=O)NC[C@@H](F)C(C)(C)O)C2)C1", "IRAK4 enzyme (Homo sapiens (Human))", "=", 7),
    ("CC(=O)NC12CC(Nc3cc(-c4ccc5cc(C#N)cnn45)ncc3C(=O)NCC#N)(C1)C2", "IRAK4 enzyme (Homo sapiens (Human))", "<", 1),
    ("CNC(=O)c1ncc(Nc2cc(-c3ccc4cc(C#N)cnn34)ncc2C(=O)NC[C@@H](F)C(C)(C)O)cn1", "IRAK4 enzyme (Homo sapiens (Human))", "<", 1),
    ("Cc1cc(Nc2cc(-c3ccc4cc(C#N)cnn34)ncc2C(=O)NC[C@@H](F)C(C)(C)O)ccc1C#N", "IRAK4 enzyme (Homo sapiens (Human))", "=", 2),
    ("CC(C)(O)[C@H](F)CNC(=O)c1cnc(-c2ccc3cc(C#N)cnn23)cc1Nc1ccc2ncsc2c1", "IRAK4 enzyme (Homo sapiens (Human))", "<", 1),
    ("CN(C)C(=O)OC12CCC(Nc3cc(-c4ccc5cc(C#N)cnn45)ncc3C(=O)NC[C@@H](F)C(C)(C)O)(CC1)CC2", "IRAK4 enzyme (Homo sapiens (Human))", "=", 2),
    ("CC(C)(O)[C@H](F)CNC(=O)c1cnc(-c2ccc3cc(C#N)cnn23)cc1Nc1cnn(-c2ccncc2)c1", "IRAK4 enzyme (Homo sapiens (Human))", "<", 1),
    ("CNC(=O)c1cnc(-c2ccc3cc(C#N)cnn23)cc1N[C@H]1C[C@H](C(=O)NC)C1", "IRAK4 enzyme (Homo sapiens (Human))", "=", 43),
    ("N#Cc1cnn2c(-c3cc(NC45CCC(O)(CC4)CC5)c(C(=O)NCC4(C(F)F)COC4)cn3)ccc2c1", "IRAK4 enzyme (Homo sapiens (Human))", "=", 4),
    ("CC(C)(O)[C@H](F)CNC(=O)c1cnc(-c2ccc3cc(C#N)cnn23)cc1NC12CCC(C(N)=O)(CC1)CC2", "IRAK4 enzyme (Homo sapiens (Human))", "<", 1),
    ("CC(C)(O)[C@H](F)CNC(=O)c1cnc(-c2ccc3cc(C#N)cnn23)cc1N[C@H]1C[C@H](Cn2ccccc2=O)C1", "IRAK4 enzyme (Homo sapiens (Human))", "=", 1),
    ("CC(C)(O)[C@H](F)CNC(=O)c1cnc(-c2ccc3cc(C#N)cnn23)cc1N[C@H]1CCC[C@@H](N2CCOCC2)C1", "IRAK4 enzyme (Homo sapiens (Human))", "=", 1),
    ("CC(=O)N1CC(Nc2cc(-c3ccc4cc(C#N)cnn34)ncc2C(=O)NC[C@@H](F)C(C)(C)O)C1", "IRAK4 enzyme (Homo sapiens (Human))", "=", 3),
]
